Biological target: NLRP3 inflammasomes (Homo sapiens)
Construct: endogenous in cells
Experiment: THP-1 pyroptosis test (cell pyroptosis test)
Settings: THP-1 cells differentiated with PMA, LPS stimulation, 10 μM nigericin, drug 0.001-10 μM, MTT absorbance 562 nm
# EC50 annotations

Completed entries (count: 10):
1. CN1CCC[C@@H](Nc2nnc(-c3ccc(C(F)(F)F)cc3O)c3c2ncn3C)C1	< 20 nM
2. Cc1cnc2c(-c3ccc(C(F)(F)F)cc3O)nnc(N[C@@H]3CCCN(C)C3)c2c1	< 20 nM
3. CN1CCC(Nc2nnc(-c3ccc(C(F)(F)F)cc3O)c3c2cnn3C)CC1	500 to 1000 nM
4. CCN1CC[C@@H](CNc2nnc(-c3ccc(C(F)(F)F)cc3O)c3c2cnn3C)C1	> 1000 nM
5. CN1CCC(CNc2nnc(-c3ccc(C(F)(F)F)cc3O)c3c2cnn3C)CC1	100 to 500 nM
6. Cc1ccc(-c2nnc(N[C@@H]3CCCN(C)C3)c3cnn(C)c23)c(O)c1	< 20 nM
7. CN1CCC(Nc2nnc(-c3ccc(F)cc3O)c3cnn(C)c23)CC1	> 1000 nM
8. CCN1CCC[C@@H](Nc2nnc(-c3ccc(C(F)(F)F)cc3O)c3ccccc23)C1	< 20 nM
9. CN1CCC[C@@H](Nc2nnc(-c3ccc(C(F)(F)F)cc3O)c3ccncc23)C1	< 20 nM
10. Cc1ccc2c(N[C@@H]3CCCN(C)C3)nnc(-c3ccc(C(F)(F)F)cc3O)c2c1	< 20 nM

query: Look up and report measured EC50 for this entry: CCN1CCC[C@@H]1CNc1nnc(-c2ccc(C(F)(F)F)cc2O)c2ccccc12
result: 500 to 1000 nM

query: Please report the measured EC50 for Cc1cnc2c(N[C@@H]3CCCN(C)C3)nnc(-c3ccccc3O)c2c1
result: < 20 nM

* * *

Catalogue of compounds with associated pEC50
Molecular target: NLRP3 inflammasomes (Homo sapiens, UniProt Q96P20)
Construct: endogenous in cells
Sequence (Q96P20 whole entry): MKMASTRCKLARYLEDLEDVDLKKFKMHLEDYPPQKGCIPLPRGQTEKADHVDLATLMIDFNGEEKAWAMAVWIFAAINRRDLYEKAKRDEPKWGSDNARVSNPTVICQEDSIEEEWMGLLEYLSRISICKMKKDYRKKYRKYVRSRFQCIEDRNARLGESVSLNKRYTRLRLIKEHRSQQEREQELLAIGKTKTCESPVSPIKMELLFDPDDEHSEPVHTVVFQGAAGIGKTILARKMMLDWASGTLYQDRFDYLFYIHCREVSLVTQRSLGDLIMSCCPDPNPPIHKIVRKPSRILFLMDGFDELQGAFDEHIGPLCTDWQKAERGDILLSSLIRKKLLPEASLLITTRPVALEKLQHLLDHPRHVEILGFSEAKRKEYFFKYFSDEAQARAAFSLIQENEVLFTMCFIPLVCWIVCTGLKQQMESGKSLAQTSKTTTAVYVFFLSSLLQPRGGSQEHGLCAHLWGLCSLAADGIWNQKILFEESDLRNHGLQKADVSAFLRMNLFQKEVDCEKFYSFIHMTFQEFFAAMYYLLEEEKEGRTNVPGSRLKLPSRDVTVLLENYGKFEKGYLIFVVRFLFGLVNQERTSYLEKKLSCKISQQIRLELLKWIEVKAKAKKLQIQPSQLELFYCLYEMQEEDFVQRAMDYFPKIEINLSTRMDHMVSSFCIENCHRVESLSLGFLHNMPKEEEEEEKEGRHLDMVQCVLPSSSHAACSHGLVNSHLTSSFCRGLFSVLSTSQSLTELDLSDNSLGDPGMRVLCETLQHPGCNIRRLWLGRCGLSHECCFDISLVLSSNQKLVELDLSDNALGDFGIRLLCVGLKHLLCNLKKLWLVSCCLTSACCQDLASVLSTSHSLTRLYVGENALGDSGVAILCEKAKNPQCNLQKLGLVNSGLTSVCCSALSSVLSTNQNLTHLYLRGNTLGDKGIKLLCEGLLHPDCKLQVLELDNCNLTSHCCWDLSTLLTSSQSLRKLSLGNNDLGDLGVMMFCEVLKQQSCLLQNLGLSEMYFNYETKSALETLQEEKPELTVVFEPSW
Assay: THP-1 pyroptosis test (cell pyroptosis test)
Conditions: THP-1 cells differentiated with PMA, LPS stimulation, 10 μM nigericin, drug 0.001-10 μM, MTT absorbance 562 nm
pEC50: −log10 of the molar value.

1. COc1ccc2c(-c3ccc(C(F)(F)F)cc3O)nnc(N[C@@H]3CCCN(C)C3)c2c1	> 7.70
2. CN1CCC[C@@H](Nc2nnc(-c3ccc(C(F)(F)F)cc3O)c3c2nc(C2CC2)n3C)C1	> 7.70
3. Cc1ccc(O)c(-c2nnc(N[C@@H]3CCCN(C)C3)c3ccccc23)c1	< 6.00
4. Cc1cnc2c(N[C@@H]3CCCN(C)C3)nnc(-c3ccc(C(F)(F)F)cc3O)c2c1	> 7.70
5. Cn1ncc2c(NCCN3CCOCC3)nnc(-c3ccc(C(F)(F)F)cc3O)c21	6.00 to 6.30

Next compound, please.
query: For the compound CN1CCC[C@@H](Nc2nnc(-c3ccc(C(F)(F)F)cc3C(F)F)c3c2cnn3C)C1 , report pEC50.
result: 7.00 to 7.70

* * *

Target: NLRP3 inflammasomes (Homo sapiens, UniProt Q96P20)
Construct: endogenous in cells
Test: THP-1 pyroptosis test (cell pyroptosis test)
Settings: THP-1 cells differentiated with PMA, LPS stimulation, 10 μM nigericin, drug 0.001-10 μM, MTT absorbance 562 nm
pEC50: −log10 of the molar value.
Property: pEC50; scope: individual molecules

Please review the entries below; each comes with its answer.
1) CN1CCC[C@@H](Nc2nnc(-c3sccc3O)c3c2ncn3C)C1	< 6.00
2) C[C@@H](Nc1nnc(-c2ccc(C(F)(F)F)cc2O)c2ccccc12)c1ccc(F)cc1	< 6.00
3) Oc1cc(C(F)(F)F)ccc1-c1nnc(N[C@H]2CCc3ncccc32)c2ccccc12	7.00 to 7.70

query: Input Cc1ccc(-c2nnc(N[C@@H]3CCCN(C)C3)c3ncc(C)cc23)c(O)c1 , output reported pEC50.
result: > 7.70

query: Kindly indicate its recorded pEC50. Item: Cc1ccc(-c2nnc(NCCN3CCOCC3)c3c2cnn3C)c(O)c1
result: < 6.00

Numbers sourced from patent US20240391881A1.
